System: CSK
Settings: concentration: 1 μM, replicates: in singlicate; n = 1;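 note: KINOMEscan kinase panel screen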
QUANTITY_MEASURED: %Inh (%)
Respond with the bare value in %.

Ask | Field: %Inh (CSK). Entry: COC(=O)Nc1nc2cc(Oc3ccc(NC(=O)Nc4cccc(SC)c4)cc3)ccc2[nH]1.Cl
Reply | 0

Ask | Now the compound COc1cccc2c(-c3ccncc3)c(-c3ccc(F)cc3)nn12
Reply | 0

Ask | Do the same for Cn1cc(-c2ccc3c(c2)CCN3C(=O)Cc2cc(F)cc(F)c2F)c2c(N)ncnc21 please
Reply | 0

Ask | Again, but for O=C(O)C(F)(F)F.O=c1[nH]ccc2nc(N[C@@H]3CCNC3)nc(Nc3ccc4c(c3)S(=O)(=O)CC4)c12
Reply | 5

Ask | Entry to check: COc1cccc(NC(=O)NCCNc2ccnc(Nc3ccc(F)cc3)n2)c1
Reply | 0

Ask | Lookup CC(C)c1nc(-c2ccc(F)c(NS(=O)(=O)c3c(F)cccc3F)c2)c(-c2ccnc(Nc3ccc(N4CCOCC4)nc3)n2)s1
Reply | 97.4

Ask | Now the compound COc1ccc(NC(=O)c2ccoc2)cc1-c1ccc(C(=O)NCC2CC2)cc1
Reply | 0

Ask | What about Cl.Cl.NC(CNC(=O)c1cc(Br)c(-c2ccnc3[nH]ccc23)s1)c1ccccc1 (centres unmarked) ?
Reply | 0

====

System: MRCKB
Construct: gene CDC42BPB
Details: concentration: 1 μM, replicates: in singlicate; n = 1
QUANTITY_MEASURED: %Inh (%)
Please reply with the bare figure in % and do not write the unit itself.

Ask | What %Inh value was documented for this molecule, Cc1cccc(Nc2nc(NCCN)ncc2C(N)=O)c1 [GSK1292139] ?
Reply | 0

Ask | Can you handle CN(C)CCNS(=O)(=O)c1ccc(-c2ccnc3[nH]ccc23)cc1 [GSK977620] next?
Reply | 46

Ask | Next record, please: Cc1ccc(-c2ccc3occ(-c4ccc(S(C)=O)cc4)c3c2)nn1 (stereo not drawn)
Reply | 0

Ask | What do you get for CCn1c(-c2nonc2N)nc2c(-c3ccccc3)ncc(OCCCN)c21.O=C(O)C(F)(F)F.O=C(O)C(F)(F)F [GSK260205] ?
Reply | 99.3

Ask | Try the molecule Cn1cc(-c2cnc(N)c3c(-c4ccc5c(c4)CCN5C(=O)Cc4ccccc4)csc23)cn1 [GSK2593074]
Reply | 10

Ask | Do the same for O=C(Nc1n[nH]c2nc(-c3ccccc3O)ccc12)C1CC1 [SB-711880] please
Reply | 0

Ask | Then Cc1ccccc1CC(=O)N1CCc2cc(-c3cn(C)c4ncnc(N)c34)ccc21 [GSK2603346] ?
Reply | 0

Ask | Now give it for CCOc1nccc(-c2c(-c3ccc(F)cc3)ncn2C2CCNCC2)n1 [SB-249175] too.
Reply | 26

Ask | // same read-out, input: O=C(Nc1n[nH]c2nc(-c3ccccc3)ccc12)C1CC1 [SB-708999]
Reply | 0

====

System: MTOR
Conditions: concentration: 1 μM, replicates: in singlicate; n = 1
QUANTITY_MEASURED: %Inh (%)
Use % as the unit, but write only the number.

Ask | # get_value(readout= %Inh, system= MTOR) for CC(C)c1nc(-c2cccc(NS(=O)(=O)c3c(F)cccc3F)c2)c(-c2ccnc(Nc3ccc(N4CCOCC4)nc3)n2)s1.Cl [GSK1723980]
Reply | 7

Ask | Try this compound next: Cc1ccc(C)c(NC(=O)Nc2ccc(C)c(-c3ccc(C(=O)Nc4ccncc4)cc3)c2)c1 [GSK1398473]
Reply | 17

Ask | Cool, now O=C(Nc1n[nH]c2cc(-c3cccs3)ccc12)C1CC1 [SB-731284]
Reply | 42

Ask | Also Cl.N#CCc1ccc(Nc2nccc(Nc3ccc(Oc4ccccc4)cc3)n2)cc1 [GW639905] ?
Reply | 24

Ask | Then this compound: COc1cc(Nc2nccc(N3CCC(NC(=O)Nc4ccc5c(c4)OCO5)C3)n2)cc(OC)c1OC (centres unmarked) [GSK1379766]
Reply | 26

Ask | What about O=C(Nc1n[nH]c2nc(-c3cccc(O)c3)ccc12)C1CC1 [SB-711805] ?
Reply | 0

Ask | Now consider Cc1ccc(O)cc1Nc1ccnc2cc(-c3ccc(CN4CCCCC4)o3)ccc12 [GW557777] .
Reply | 0

Ask | Similarly, Cc1ccc(-c2ccc3occ(-c4ccc(S(C)=O)cc4)c3c2)nn1 (centres unmarked) ?
Reply | 17

====

Tested on: PRKD3
Details: concentration: 1 μM, replicates: in singlicate; n = 1
For each record, write down the corresponding %Inh.
# unit: % | format: bare number

Ask | Look up %Inh for this molecule: CC(C)c1nc(-c2cccc(NS(=O)(=O)c3c(F)cccc3F)c2)c(-c2ccnc(Nc3ccc(N4CCOCC4)nc3)n2)s1.Cl [GSK1723980]
Reply | 100

Ask | COc1cccc2c(-c3ccncc3)c(-c3ccc(F)cc3)nn12 [GW468513] ?
Reply | 43

Ask | # iterate: COC(=O)Nc1nc2cc(Oc3ccc(NC(=O)Nc4cccc(SC)c4)cc3)ccc2[nH]1.Cl [GW697999]
Reply | 18

Ask | How about this molecule: O=C(O)C(F)(F)F.O=c1[nH]ccc2nc(N[C@@H]3CCNC3)nc(Nc3cc(Cl)cc(Cl)c3)c12 [GSK2188764]
Reply | 96.5

Ask | Then N#CC1(c2cccc(C(=O)Nc3cccc(Oc4ccc5nc(NC(=O)C6CC6)sc5n4)c3)c2)CC1 ?
Reply | 0

Ask | Then COc1ccc(C2=C(Nc3cccc(O)c3)C(=O)NC2=O)cc1 [SB-390766] ?
Reply | 0

Ask | Cool, now COc1ccc(C)c(Nc2ccnc(Nc3ccc(-c4cnc[nH]4)cc3)n2)c1.Cl [GW784041]
Reply | 0

Ask | Try Cc1ccc(NC(=O)c2ccc(Cl)c(Cl)c2)cc1-c1ccc(C(=O)Nc2ccncc2)cc1 [GSK1398460] next.
Reply | 23

Ask | Try this molecule next: Cc1ccc(NC(=O)c2cccc(N3CCCCC3)c2)cc1-c1ccc(C(=O)NCC2CC2)cc1 [GSK1917008]
Reply | 100

Ask | Also Cc1cc(-c2c(-c3ccc(F)cc3)ncn2CCCN2CCOCC2)nc(N)n1 [SB-222517] , if possible.
Reply | 0

Ask | Check Cc1ccccc1CC(=O)N1CCc2cc(-c3cn(C)c4ncnc(N)c34)ccc21 [GSK2603346] too.
Reply | 0

Ask | Query O=C(Nc1n[nH]c2nc(-c3ccccc3O)ccc12)C1CC1 [SB-711880] next
Reply | 0

====

I'd appreciate it if you could supply %Inh values for the items below.
Tested on: PKMYT1
Settings: concentration: 1 μM, replicates: in singlicate; n = 1
Express the result in % but write the number alone.

Ask | Name the reported %Inh value associated with the compound Nc1ncc(-c2ccc3nccc(-c4ccncc4)c3c2)cc1S(=O)(=O)N1CCCCC1 [GSK1693850]
Reply | 0

Ask | Let us now turn to Cl.N#CCc1ccc(Nc2nccc(Nc3ccc(Oc4ccccc4)cc3)n2)cc1 [GW639905]
Reply | 0

Ask | Lookup CCn1c(-c2nonc2N)nc2c(-c3ccccc3)ncc(OCCCN)c21.O=C(O)C(F)(F)F.O=C(O)C(F)(F)F [GSK260205]
Reply | 0

Ask | Same question for CCn1cnc2c(NCc3ccccc3)ncnc21 [SKF-96418] please.
Reply | 0

Ask | Now consider Cc1cc(-c2ccnc(Nc3cccc(C#N)c3)n2)cc(C)c1O [GSK1440913] .
Reply | 6

Ask | And what about the compound Nc1ncnc2scc(-c3ccc(NC(=O)Cc4cc(F)ccc4F)cc3)c12.O=C(O)C(F)(F)F [SB-731254-M] ?
Reply | 23

Ask | Then COC(=O)Nc1nc2cc(Oc3ccc(NC(=O)Nc4cccc(SC)c4)cc3)ccc2[nH]1.Cl [GW697999] ?
Reply | 0

Ask | Continue with O=C(Nc1c(F)cccc1F)c1cc(C(=O)c2ccccc2F)c[nH]1 [GSK1326180]
Reply | 3

====

Tested on: CDKL1
Conditions: concentration: 1 μM, replicates: in singlicate; n = 1
QUANTITY_MEASURED: %Inh

Ask | Quick one: %Inh of Cc1ccc(-c2ccc3occ(-c4ccc(S(C)=O)cc4)c3c2)nn1 (centres unmarked) ?
Reply | 35%

Ask | Repeat with COc1ccc(NC(=O)c2ccoc2)cc1-c1ccc(C(=O)NCC2CC2)cc1 [GW810437]
Reply | 11%

Ask | Check COc1cc(Nc2nccc(N3CCC(NS(=O)(=O)c4ccc(NC(C)=O)cc4)CC3)n2)cc(OC)c1OC [GSK1379825] too.
Reply | 19%

Ask | Then this molecule: O=C(Nc1c(F)cccc1F)c1cc(C(=O)c2ccccc2F)c[nH]1 [GSK1326180]
Reply | 0%

Ask | Try this molecule too: c1ccc(Oc2ccc(Nc3ccnc4cc(-c5ccc(CN6CCCCC6)o5)ccc34)cc2)nc1 [GW567143]
Reply | 0%

Ask | // next record Cc1ccc(NC(=O)c2cccc(N3CCCCC3)c2)cc1-c1ccc(C(=O)NCC2CC2)cc1 [GSK1917008]
Reply | 7%

Ask | What do you get for COc1cccc(CC(=O)N2CCc3cc(-c4cn(C)c5ncnc(N)c45)ccc32)c1 [GSK2608899] ?
Reply | 1%

Ask | Repeat with NCCC(NC(=O)c1cc(Br)c(-c2ccnc3[nH]ccc23)s1)c1ccccc1.O=C(O)C(F)(F)F.O=C(O)C(F)(F)F (centres unmarked) [GSK1307810]
Reply | 2%
